Tested on: MDA-N
Procedure Details: NCI tumour cell line growth inhibition, 48 h
Consider the following compounds; for each one, report its TGI.

Problem: Tell me the measured TGI of CSC(=S)OC1C(CO[Si](C)(C)C(C)(C)C)OC2OC(C)(C)OC21 (centres undefined) , please.
Solution: > 100 µM

Problem: Tell me the measured TGI of CC1SC(=O)SC1C (centres undefined) , please.
Solution: > 100 µM

Problem: Tell me the measured TGI of CN(C)CCCNc1ccc2nnn3c4ccc(OC(=O)c5ccc([N+](=O)[O-])cc5)cc4c(=O)c1c23 , please.
Solution: 26 µM

Problem: Tell me the measured TGI of CC1=NN(C(=O)c2ccccc2O)C(c2ccccc2Cl)C1C(=O)Nc1ccccc1 (centres undefined) , please.
Solution: > 100 µM

Problem: Tell me the measured TGI of COC(=O)/C=C(/C(=O)OC)c1c(C)cc2c(C)cc(C)cc(C)c1-2 , please.
Solution: 5.16 µM

Problem: Tell me the measured TGI of C[C@@H]1C[C@@]2(O[C@@H]2C)C(=O)O[C@@H]2CCN3CC=C(COC(=O)[C@]1(C)O)[C@H]23 , please.
Solution: > 100 µM

Problem: Tell me the measured TGI of COc1ccc(/C(C)=N/NC(=O)c2ccncc2)cc1OC , please.
Solution: > 10 µM

Problem: Tell me the measured TGI of Fc1ccc(Nc2nnc(-c3ccccn3)s2)cc1 , please.
Solution: > 100 µM

Problem: Tell me the measured TGI of CC(=O)c1c[nH]cc1CO , please.
Solution: > 10 µM
